# System Under Test: Cytochrome P450 3A4 (Homo sapiens, UniProt P08684)
# Sequence (P08684 whole entry): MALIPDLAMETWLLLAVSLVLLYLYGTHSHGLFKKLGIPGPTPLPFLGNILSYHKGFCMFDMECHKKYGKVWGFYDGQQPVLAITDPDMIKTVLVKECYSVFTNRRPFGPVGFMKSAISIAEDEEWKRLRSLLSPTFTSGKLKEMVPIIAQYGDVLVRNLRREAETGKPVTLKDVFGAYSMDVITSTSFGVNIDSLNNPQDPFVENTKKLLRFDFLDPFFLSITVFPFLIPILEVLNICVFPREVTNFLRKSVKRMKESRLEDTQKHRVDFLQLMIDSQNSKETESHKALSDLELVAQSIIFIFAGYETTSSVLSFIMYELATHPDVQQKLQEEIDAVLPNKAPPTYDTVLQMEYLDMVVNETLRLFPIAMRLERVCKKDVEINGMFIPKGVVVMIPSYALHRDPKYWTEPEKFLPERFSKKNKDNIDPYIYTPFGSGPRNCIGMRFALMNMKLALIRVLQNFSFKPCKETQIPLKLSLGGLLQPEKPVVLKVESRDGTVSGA
pIC50: −log10 of the molar value.
Attribute Measured: pIC50

Record `COC(=O)C1=C(CN2CCOC[C@H]2C(=O)O)N=C(c2nccs2)N[C@H]1c1ccc(F)cc1Cl` ; system Cytochrome P450 3A4 (Homo sapiens, UniProt P08684); pIC50 = < 4.30

====

# Experimental Protocol: Selectivity index, ratio of CC50 for HBV infected human HepDE19 cells to EC50 for HBV infected in human HepG2(2.2.15) cells
Attribute Measured: Ratio CC50/EC50
Just the number, please.

# count of solved cases: 7
>  <Compound>
COC(=O)C1=C(CN2CCOC[C@H]2CNS(C)(=O)=O)NC(c2nccs2)=N[C@H]1c1ccc(F)cc1Cl

>  <Ratio CC50/EC50>
22000

$$$$
>  <Compound>
CC(C)OC(=O)C1=C(CN2CCOC[C@H]2C(=O)O)NC(c2nccs2)=N[C@H]1c1ccc(F)cc1Cl

>  <Ratio CC50/EC50>
4235

$$$$
>  <Compound>
COC(=O)C1=C(CN2CCOC[C@H]2C(=O)O)NC(c2nccn2C)=N[C@H]1c1ccc(F)cc1Cl

>  <Ratio CC50/EC50>
1952

$$$$
>  <Compound>
COC(=O)C1=C(CN2CCOCC2CO)NC(c2nccs2)=N[C@H]1c1ccc(F)cc1Cl (some centres not stated)

>  <Ratio CC50/EC50>
14800

$$$$
>  <Compound>
CCOC(=O)C1=C(CN2CCOC[C@H]2C(=O)O)NC(c2nccs2)=N[C@H]1c1cccc(F)c1Cl

>  <Ratio CC50/EC50>
125000

$$$$
>  <Compound>
CCOC(=O)C1=C(CN2CCOC[C@H]2C(=O)O)NC(c2nccs2)=N[C@H]1c1ccc(F)c(F)c1Br

>  <Ratio CC50/EC50>
72857

$$$$
>  <Compound>
COC(=O)C1=C(CN2CCSCC2C(=O)O)NC(c2nccs2)=N[C@H]1c1ccc(F)cc1Cl (single isomer, unassigned)

>  <Ratio CC50/EC50>
1579

$$$$

// field: Ratio CC50/EC50; key: `COC(=O)C1=C(C)NC(c2nccs2)=N[C@H]1c1ccc(F)cc1Cl` ; value = 1038
